Where do these numbers come from? They come from patent US20120289454.

test system: GGhyrfk-amide (synthetic); conditions: Cu complex; Vmax 2.86 RFU/min
measurementLabel: Kd (µM)

sequenceRecord: GGCAGAAAGCGUCUAGCCAUGGCGUUAGUAUGCC [HCV IRES SL IIb RNA]
unitText: µM
observedMeasurement: 6.09
